Values compiled from paper PMC5691919.

Examples of compounds with documented pKi follow.
biological target: UniProt P33533
Sequence (P33533 whole entry): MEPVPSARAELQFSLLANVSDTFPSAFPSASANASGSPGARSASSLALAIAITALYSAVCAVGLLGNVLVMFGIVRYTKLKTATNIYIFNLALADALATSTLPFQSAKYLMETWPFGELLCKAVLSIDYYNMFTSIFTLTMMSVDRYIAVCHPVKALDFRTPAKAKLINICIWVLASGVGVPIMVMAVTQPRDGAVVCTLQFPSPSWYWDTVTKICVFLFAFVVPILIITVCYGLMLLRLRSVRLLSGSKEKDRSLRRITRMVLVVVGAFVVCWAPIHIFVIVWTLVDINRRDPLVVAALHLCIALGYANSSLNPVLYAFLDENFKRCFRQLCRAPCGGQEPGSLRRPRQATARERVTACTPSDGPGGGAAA
Bear in mind: pKi is minus log10 of a mol/L concentration; give just that figure.

Check out these entries, answers already filled in.
COc1cccc(Cc2ccc3c(c2)[C@H](NC(=O)[C@@H](N)Cc2c(C)cc(O)cc2C)CCN3)c1 ... 8.27
Cc1cc(O)cc(C)c1C[C@H](N)C(=O)N[C@@H]1CCNc2ccc(Cc3ccccc3O)cc21 ... 8.25
COc1ccccc1Cc1ccc2c(c1)[C@H](NC(=O)[C@@H](N)Cc1c(C)cc(O)cc1C)CCN2 ... 8.19
Cc1cc(O)cc(C)c1C[C@H](N)C(=O)N[C@@H]1CCNc2ccc(Cc3ccc(O)cc3)cc21 ... 6.89
COc1ccc(Cc2ccc3c(c2)[C@H](NC(=O)[C@@H](N)Cc2c(C)cc(O)cc2C)CCN3)cc1 ... 7.82

Case Cc1cc(O)cc(C)c1C[C@H](N)C(=O)N[C@@H]1CCNc2ccc(Cc3cccc(O)c3)cc21 , UniProt P33533, pKi recorded as 8.85

Case COc1cccc2c1CC(Cc1ccc3c(c1)[C@H](NC(=O)[C@@H](N)Cc1c(C)cc(O)cc1C)CCN3)C2 (some centres unmarked) , UniProt P33533, pKi recorded as 8.64

Case Cc1cc(O)cc(C)c1C[C@H](N)C(=O)N[C@@H]1CCNc2ccc(CC3Cc4ccc(O)cc4C3)cc21 (some centres unmarked) , UniProt P33533, pKi recorded as 7.82

* * *

biological target: rat MOR (C6-MOR) (Rattus norvegicus, UniProt P33535); experiment: Stimulation of [35S]-GTPγS binding, C6-MOR membranes; assay type: biochemical; conditions: read-out: % stimulation MOR
Sequence (P33535 whole entry): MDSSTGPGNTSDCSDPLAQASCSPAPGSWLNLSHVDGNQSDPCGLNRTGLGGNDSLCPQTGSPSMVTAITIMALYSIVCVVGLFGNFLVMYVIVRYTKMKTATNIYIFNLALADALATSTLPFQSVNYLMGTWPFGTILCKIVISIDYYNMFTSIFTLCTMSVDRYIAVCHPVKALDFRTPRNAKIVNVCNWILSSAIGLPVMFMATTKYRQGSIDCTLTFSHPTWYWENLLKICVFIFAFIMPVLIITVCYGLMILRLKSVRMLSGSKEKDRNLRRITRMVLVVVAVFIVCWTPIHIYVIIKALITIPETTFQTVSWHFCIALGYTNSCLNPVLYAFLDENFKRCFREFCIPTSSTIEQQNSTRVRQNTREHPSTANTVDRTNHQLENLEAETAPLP
Property name: Emax (%)
Hi! Could you send only the number? It should be in %, unit omitted.

Check out these entries, answers already filled in.
Cc1cc(O)cc(C)c1C[C@H](N)C(=O)N[C@@H]1CCNc2ccc(Cc3cccc(O)c3)cc21 [Compound 4e] ... 96
COc1cccc(Cc2ccc3c(c2)[C@H](NC(=O)[C@@H](N)Cc2c(C)cc(O)cc2C)CCN3)c1 [Compound 4b] ... 99
COc1ccccc1Cc1ccc2c(c1)[C@H](NC(=O)[C@@H](N)Cc1c(C)cc(O)cc1C)CCN2 [Compound 4a] ... 91

Turning now to a further record.
Emax reported for this compound Cc1cc(O)cc(C)c1C[C@H](N)C(=O)N[C@@H]1CCNc2ccc(Cc3ccccc3O)cc21 [Compound 4d] : 89

* * *

target: rat MOR (C6-MOR) (Rattus norvegicus); assay: Stimulation of [35S]-GTPγS binding, C6-MOR membranes
Examples of molecules with documented pEC50 follow.
Bear in mind: pEC50 is minus log10 of a mol/L concentration; give just that figure.

pEC50 reported for this molecule Cc1cc(O)cc(C)c1C[C@H](N)C(=O)N[C@@H]1CCNc2ccc(Cc3ccccc3O)cc21 : 8.01

pEC50 reported for this molecule COc1ccc(Cc2ccc3c(c2)[C@H](NC(=O)[C@@H](N)Cc2c(C)cc(O)cc2C)CCN3)cc1 : 8.03

pEC50 reported for this molecule COc1ccc2c(c1)CC(Cc1ccc3c(c1)[C@H](NC(=O)[C@@H](N)Cc1c(C)cc(O)cc1C)CCN3)C2 (some centres unmarked) : 8.10

pEC50 reported for this molecule Cc1cc(O)cc(C)c1C[C@H](N)C(=O)N[C@@H]1CCNc2ccc(CC3Cc4ccc(O)cc4C3)cc21 (some centres unmarked) : 8.15

pEC50 reported for this molecule COc1cccc(Cc2ccc3c(c2)[C@H](NC(=O)[C@@H](N)Cc2c(C)cc(O)cc2C)CCN3)c1 : 8.36

pEC50 reported for this molecule COc1cccc2c1CC(Cc1ccc3c(c1)[C@H](NC(=O)[C@@H](N)Cc1c(C)cc(O)cc1C)CCN3)C2 (some centres unmarked) : 8.72

pEC50 reported for this molecule Cc1cc(O)cc(C)c1C[C@H](N)C(=O)N[C@@H]1CCNc2ccc(Cc3cccc(O)c3)cc21 : 8.32

pEC50 reported for this molecule COc1ccccc1Cc1ccc2c(c1)[C@H](NC(=O)[C@@H](N)Cc1c(C)cc(O)cc1C)CCN2 : 8.05
